Origin of measurements: patent US20230265217A1

- target: 178-6
- test.name: competition
In this section we review reported IC50 values for a set of binders.
reported.metric: IC50

{"binder": "7-26 (VHH) VHH: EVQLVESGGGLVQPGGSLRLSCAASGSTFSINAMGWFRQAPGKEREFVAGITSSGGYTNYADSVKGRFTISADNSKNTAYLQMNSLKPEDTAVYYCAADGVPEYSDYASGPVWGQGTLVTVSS", "result.value": "0.138 nM"}
{"binder": "7-14 (VHH) VHH: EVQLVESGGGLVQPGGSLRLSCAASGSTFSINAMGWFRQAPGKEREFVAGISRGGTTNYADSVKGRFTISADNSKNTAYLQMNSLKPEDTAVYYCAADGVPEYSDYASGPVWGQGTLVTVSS", "result.value": "0.682 nM"}
{"binder": "3-31 (VHH) VHH: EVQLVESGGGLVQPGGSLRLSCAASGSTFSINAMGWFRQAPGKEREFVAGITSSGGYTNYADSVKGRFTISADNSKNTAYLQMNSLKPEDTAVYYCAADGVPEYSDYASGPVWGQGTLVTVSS", "result.value": "1.25 nM"}
{"binder": "7-37 (VHH) VHH: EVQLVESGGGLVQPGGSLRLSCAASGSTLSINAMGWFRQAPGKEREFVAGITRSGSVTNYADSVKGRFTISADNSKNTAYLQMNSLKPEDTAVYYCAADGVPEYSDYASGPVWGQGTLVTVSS", "result.value": "7.51 nM"}
